study.target: T1, PUF4 RNA-binding domain (Saccharomyces cerevisiae, UniProt P25339 537-888)
T1 sequence: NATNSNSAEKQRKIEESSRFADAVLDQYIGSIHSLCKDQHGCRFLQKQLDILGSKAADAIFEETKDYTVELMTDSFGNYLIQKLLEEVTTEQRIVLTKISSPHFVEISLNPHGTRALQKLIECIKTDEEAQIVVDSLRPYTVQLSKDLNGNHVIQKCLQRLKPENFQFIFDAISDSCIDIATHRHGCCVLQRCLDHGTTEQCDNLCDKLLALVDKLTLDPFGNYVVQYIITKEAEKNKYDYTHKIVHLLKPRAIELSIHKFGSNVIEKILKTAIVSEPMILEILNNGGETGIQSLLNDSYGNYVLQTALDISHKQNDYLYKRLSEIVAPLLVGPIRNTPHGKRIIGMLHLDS
procedure.summary: Mg; RNA-MaP; 20 mM Na-HEPES pH 7.4, 30 mM KOAc, 0.75 mM MgCl2, 0.1% Tween-20, 5% glycerol, 0.1 mg/mL BSA, 2 mM DTT; 25 C; 0.0125-409.6 nM protein
condition.summary: tags: N-His6-TEV cleaved; C-SNAP kept, Cy3B-labelled; label: tethered on chip by stalled RNA polymerase
pKd: −log10 of the molar value.
// Criterion not met strictly below 7 in pKd; Criterion met otherwise

Q: Tell me whether pKd is at least 7 here: Ie_S4_P5E.1_K5.1_C5.1_H5.1_[+3TCC]_A5.1_F5.1_T5.1 (ssRNA) RNA: UUUGACAACUGAUCGUUCUUUCUUGUUCCAUUAUUAUUCUUUCUCGAUCAGUUGUCUUU
Ans: Criterion met

Q: Tell me whether pKd is at least 7 here: UCUCUUUGUACCUCUUAUUAUCUCUU (ssRNA) [Ie_S1_P4E.1_K4.1_C4.1_H4.1_[+4CCTCT]_A4.1_F4.1_T4.1]
Ans: Criterion met

Q: Tell me whether pKd is at least 7 here: UCUCUUGUUAUAUAUAAAUCUCUU (ssRNA) [Id_ii_S1_P3E.3_K3.2_C3.2_[C-2G]_H3.2_A3.1_F3.1_T3.2_[T9A]]
Ans: Criterion met

Q: Tell me whether pKd is at least 7 here: ACAAACUGCAUAAUAACAAAC (ssRNA) [Ib_S3_P4E.1_K4.1_C4.1_H4.1_[T3C]_A4.1_[T7A]_F4.1_T4.1]
Ans: Criterion not met

Q: Tell me whether pKd is at least 7 here: Ie_S2_P3E.2_K3.1_C3.2_H3.1_[+3CC]_A3.1_F3.1_T3.2 (ssRNA) RNA: UUUGAUUAAUAUGAUAUCGUUCUUUCUCUUGUCCAUAUAUAUUCUUUCUCGAUAUCAUAUUAAUCUUU
Ans: Criterion met

Q: Tell me whether pKd is at least 7 here: Ib_S4_P3E.1_K3.1_C3.1_H3.1_[A4G]_A3.1_F3.1_[T7A]_T3.1 (ssRNA) RNA: UUUGACAACUGAUCGUUCUUUCUUGUGUAAAUUCUUUCUCGAUCAGUUGUCUUU
Ans: Criterion met

Q: Tell me whether pKd is at least 7 here: Ic_S2_P5E.1_K5.1_C5.1_H5.1_A5.1_[T5C]_[T6A]_[A7T]_F5.1_[T8A]_[T9G]_[A10T]_T5.1 (ssRNA) RNA: UUUGAUUAAUAUGAUAUCGUUCUUUCUUGUACAUAGUUUCUUUCUCGAUAUCAUAUUAAUCUUU
Ans: Criterion met

Q: Tell me whether pKd is at least 7 here: UCUCUUUGUACAUCCUCUCUU (ssRNA) [Ic_S1_P4E.1_K4.1_C4.1_H4.1_A4.1_[T5C]_F4.1_[T8C]_[A9C]_T4.1]
Ans: Criterion met

Q: Tell me whether pKd is at least 7 here: Ic_S2_P3E.1_K3.1_C3.1_H3.1_A3.1_[T5G]_[A6T]_F3.1_[A8C]_T3.1 (ssRNA) RNA: UUUGAUUAAUAUGAUAUCGUUCUUUCUUGUAGUUCUUCUUUCUCGAUAUCAUAUUAAUCUUU
Ans: Criterion not met

Q: Tell me whether pKd is at least 7 here: Id_ii_S2_P5E.3_K5.2_C5.2_H5.2_A5.1_F5.1_T5.2_[T11A]_[A12T] (ssRNA) RNA: UUUGAUUAAUAUGAUAUCGUUCUUUCUCUUAUAUUAUUAAUUUCUUUCUCGAUAUCAUAUUAAUCUUU
Ans: Criterion not met

Q: Tell me whether pKd is at least 7 here: Id_ii_S2_P3E.2_K3.1_C3.2_[C-2T]_[T-1A]_H3.1_A3.1_F3.1_T3.2_[T9C]_[A10T] (ssRNA) RNA: UUUGAUUAAUAUGAUAUCGUUCUUUCUUAUGUAUAUACUUUCUUUCUCGAUAUCAUAUUAAUCUUU
Ans: Criterion met
